Target: T1, human GFRAL expressed on cells (human, UniProt Q6UXV0 20-394)
T1 sequence: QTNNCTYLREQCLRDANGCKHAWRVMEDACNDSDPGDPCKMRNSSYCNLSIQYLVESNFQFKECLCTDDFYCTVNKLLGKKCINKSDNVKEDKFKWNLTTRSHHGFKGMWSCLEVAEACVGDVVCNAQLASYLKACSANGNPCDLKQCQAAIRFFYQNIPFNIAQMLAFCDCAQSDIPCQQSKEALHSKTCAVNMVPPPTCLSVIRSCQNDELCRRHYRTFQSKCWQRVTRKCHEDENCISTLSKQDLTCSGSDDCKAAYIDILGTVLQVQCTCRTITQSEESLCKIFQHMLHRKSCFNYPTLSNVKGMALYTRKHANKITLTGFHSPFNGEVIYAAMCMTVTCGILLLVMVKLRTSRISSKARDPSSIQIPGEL
Assay: cell-based or functional assay
Metric name: IC50, ERK phosphorylation in U2OS hGFRAL/hRET cells (nM)
// note: answer is a bare numeric in nM

[in] Reported IC50, ERK phosphorylation in U2OS hGFRAL/hRET cells for antibody designated 17J16 (antibody, V domains shown, mouse hybridoma monoclonal) VH: QVQLQQSGAELAKPGASVKMSCKTSGYTFTDYWIHWVKQRPGQGLEWIGYINPNSNYAEYNQKFKVKATLTADKSSSTAYLQLSRLTSEDSAVYYCARFDWNWYFHVWGAGSTVTVSS VL: DVALTQIPLTLSVTVGQPASISCKSSQSLSDSDGKTYLNWLLQKPGQSPKRLIYLVSRLGSGVPDRFTGSGSGADFTLKISRVEAEDLGVYYCWQGTHFPQTFGGGTKLEIK : what is it?
[out] 0.1
